Taken from the OPERA property sets (Mansouri et al. 2018).

Settings: 23 °C
ENDPOINT: solubility (µM)
Give bare numbers, in µM.

Input: Fill blank: measured solubility of the compound `COc1cc([C@@H]2c3cc4c(c(O)c3C[C@H]3COC(=O)[C@@H]32)OCO4)cc(OC)c1OC` is ____.
Output: 31.4
